conditions: in methanol, 308.15 K
observed property: solubility (mole fraction)

In [3]: df
Out[3]:
                            chemical_string    result
0  CC(=O)c1c(C)c2cnc(Nc3ccc(N4CCNCC4)cn3)nc2n(C2CCCC2)c1=O  2.54e-05

* * *

details: in anisole, 308.15 K
observed property: solubility (mole fraction)

In [3]: df
Out[3]:
                            chemical_string  measured_number
0  CC(=O)c1c(C)c2cnc(Nc3ccc(N4CCNCC4)cn3)nc2n(C2CCCC2)c1=O         1.67e-05

* * *

settings: in anisole, 313.15 K
observed property: solubility (mole fraction)

                            chemical_string           observed_property  measured_number
0  CC(=O)c1c(C)c2cnc(Nc3ccc(N4CCNCC4)cn3)nc2n(C2CCCC2)c1=O  solubility (mole fraction)         1.79e-05

* * *

conditions: in anisole, 293.15 K
observed property: solubility (mole fraction)

>>> print(df.to_string())
                            chemical_string           observed_property  measured_number
0  CC(=O)c1c(C)c2cnc(Nc3ccc(N4CCNCC4)cn3)nc2n(C2CCCC2)c1=O  solubility (mole fraction)         1.32e-05

* * *

conditions: in m-xylene, 298.15 K
observed property: solubility (mole fraction)

>>> print(df.to_string())
                            chemical_string    result
0  CC(=O)c1c(C)c2cnc(Nc3ccc(N4CCNCC4)cn3)nc2n(C2CCCC2)c1=O  4.12e-05

* * *

settings: in THF, 308.15 K
observed property: solubility (mole fraction)

In [3]: df
Out[3]:
                            chemical_string           observed_property  measured_number
0  CC(=O)c1c(C)c2cnc(Nc3ccc(N4CCNCC4)cn3)nc2n(C2CCCC2)c1=O  solubility (mole fraction)         0.000189

* * *

conditions: in chlorobenzene, 333.15 K
observed property: solubility (mole fraction)

>>> df
                            chemical_string           observed_property  measured_number
0  CC(=O)c1c(C)c2cnc(Nc3ccc(N4CCNCC4)cn3)nc2n(C2CCCC2)c1=O  solubility (mole fraction)         0.000302

* * *

details: in chlorobenzene, 328.15 K
observed property: solubility (mole fraction)

                            chemical_string    result
0  CC(=O)c1c(C)c2cnc(Nc3ccc(N4CCNCC4)cn3)nc2n(C2CCCC2)c1=O  0.000239

* * *

details: in THF, 313.15 K
observed property: solubility (mole fraction)

>>> print(df.to_string())
                            chemical_string  measured_number
0  CC(=O)c1c(C)c2cnc(Nc3ccc(N4CCNCC4)cn3)nc2n(C2CCCC2)c1=O          0.00025

* * *

conditions: in water, 323.15 K
observed property: solubility (mole fraction)

>>> print(df.to_string())
                            chemical_string    result
0  CC(=O)c1c(C)c2cnc(Nc3ccc(N4CCNCC4)cn3)nc2n(C2CCCC2)c1=O  3.01e-05
